The values you see were collected from patent US20220380459A1.

# measuredTarget: T1, human CD33 extracellular domain (human, UniProt P20138 18-259)
# T1 construct: soluble monomeric ECD; also called human CD33 ECD; hCD33
# measurementDescription: SPR, Fab captured, 37C;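 further: Anti-CD33 Fabs captured on anti-Fab chip, soluble monomeric CD33 or its domains flowed over at several concentrations, double-referenced data fitted 1:1, Kd taken as koff/kon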
experimentalEndpoint: koff (s⁻¹)

binder="ADI-11826 Fab (Fab, V domains shown, Fab fragment; also called Ab26) VH: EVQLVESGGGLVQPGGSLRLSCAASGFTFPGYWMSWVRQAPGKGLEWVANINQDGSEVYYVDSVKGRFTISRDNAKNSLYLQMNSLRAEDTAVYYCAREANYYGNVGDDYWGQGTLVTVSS VL: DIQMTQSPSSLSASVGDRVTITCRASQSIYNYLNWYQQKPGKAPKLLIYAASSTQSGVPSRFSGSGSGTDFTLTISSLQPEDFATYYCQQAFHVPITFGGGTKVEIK" numericvalue=0.00463
binder="ADI-11828 Fab (Fab, V domains shown, Fab fragment; also called Ab27) VH: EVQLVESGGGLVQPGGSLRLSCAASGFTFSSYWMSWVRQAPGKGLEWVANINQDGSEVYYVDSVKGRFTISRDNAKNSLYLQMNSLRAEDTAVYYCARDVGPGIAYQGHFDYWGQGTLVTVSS VL: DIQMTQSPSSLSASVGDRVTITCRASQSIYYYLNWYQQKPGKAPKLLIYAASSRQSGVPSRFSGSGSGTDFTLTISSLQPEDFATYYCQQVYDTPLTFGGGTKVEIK" numericvalue=0.00351
